Hi there, I'd appreciate the recorded Relative Fluorescence Units (RFU) for every entry that follows.
# systemName: T1, I-309 (CCL1) (UniProt P22362 23-96, limits assumed)
# T1 construct: Bought chemokine
# T1 sequence (looked up): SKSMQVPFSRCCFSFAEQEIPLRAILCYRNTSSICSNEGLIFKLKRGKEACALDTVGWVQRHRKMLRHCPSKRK
# assayRemarks: micro-array, phage-presented peptide on printed CK

Record DYDY [Phage-Presented Peptide 32 (Ph-p32)] . Reported Relative Fluorescence Units (RFU): > 10000 RFU

Entry DYDYG [Phage-Presented Peptide 31 (Ph-p31)] , Relative Fluorescence Units (RFU) reported as > 15000 RFU

The binder identified as WVFGVHFCK [Phage-Presented Peptide 8.77 (Ph-p8.77)] registered its Relative Fluorescence Units (RFU) at > 15000 RFU

Consider DYDYGAPC [Phage-Presented Peptide 30 (Ph-p30)] . Its measured Relative Fluorescence Units (RFU) is > 15000 RFU
